Tested on: UO-31 renal
Assay: NCI-60 one-dose screen, 48 h (100 = growth as untreated, 0 = no growth, -100 = all killed)
Details: 10 µM unless noted
This is part of a sample that, as a whole, favours compounds with a hit. Of some 83,000 tested, about 20% had one in any assay.
QUANTITY_MEASURED: growth (%)

• CCOC(=O)c1ccc2c(c1)[n+](=O)c(C(=O)C1CCCS1)c(C(F)(F)F)n2[O-] (stereo not given) = -92.4
• C/C(=N\NC(=O)C(C)SC(C)C(=O)N/N=C(\C)c1cccnc1)c1cccnc1 (stereo not given) = 81
• CCCCC[C@H]1C/C=C2/C(=O)C(Cl)=C[C@@H]2C/C=C\CCCC(=O)O1 = -100
• CN(C)c1ccc(N)c2ccccc12 = 52.7
• COc1cc2nc(Cl)nc(Nc3cccc(C(=O)/C=C/c4ccccc4)c3)c2cc1OC = 50.8
• CCCCCCCC(=O)SCC/C=C/[C@@H]1CC(=O)NCc2cccc(n2)CN(Cc2ccc(Cl)cc2)CC(=O)N[C@@H](C(C)C)C(=O)O1 = -5.27
• CCC(CC)C(=O)OC(C)COc1ccc(C(C)(C)C)cc1 (stereo not given) = 97.3
• O=C(CI)Nc1ccc(O)c2ccccc12 = -28.7
• Nc1ccc(Br)cn1 = 93.4
• COc1ccc(/C=C/C(=O)NCCO)cc1 = 84.6
• OCC(CO)(CCl)CCl = 104
• C[C@H]1OC(=O)/C=C/[C@@H](O)[C@@H](O)CCCCCCCC[C@@H]1O = 82.6
• Cn1cc(-c2nc(-c3c[nH]c4ncccc34)cs2)c2cc(F)ccc21 = 29.4
• Cc1cc(C)c(NC(=O)c2sc3nc4c(cc3c2N)CCCC4)c(C)c1 = 62.1
• COc1ccc2nc(-c3cc(-c4cc(OC)c(OC)c(OC)c4)n[nH]3)[nH]c2c1 = -1.85
• CC(=O)NC1=C(C#N)C(c2ccccc2Cl)c2c(ccc3ccccc23)O1 (stereo not given) = 49.8
• CC1(C)C=CC[C@]2(C)[C@H]3CC[C@@H]4[C@H]5[C@H](C(=O)/C=C/c6cccnc6)CC[C@]5(CO)CC[C@@]4(C)[C@]3(C)CC[C@@H]12 = -100
• C#CCn1c2c(c3ccccc31)C[C@]1(C)[C@H]3CC[C@@H]4[C@@H]5C(=CCC[C@H]5C(=C)C)CC[C@@]4(C)[C@]3(C)CC[C@H]1C2(C)C = 77.1
• COc1ccc(-c2nc(Nc3ccc(-c4nc5ccccc5[nH]4)cc3)nc(N3CCOCC3)n2)cc1 = -43.5
• COc1ccc(-c2cc(/C=C/C(=O)c3ccc(N)cc3)[nH]n2)cc1 = 39.6

These data points were gathered from PubChem BioAssay (NCI).
